Target: IRAK4 (human)
Assay: radiometric filter-binding kinase assay
Conditions: compound 1.0 µM
Parameter threshold = 90%. Response is Met when residual activity meets or exceeds it, else Not met.

molecule: CCCCCc1ccc(/C=C/[C@H](O)[C@@H](CO)NC)cc1
category_label: Not met

molecule: CCNc1nc(Nc2cc(F)c(C(=O)N3CCOCC3)cc2OC)ncc1C(F)(F)F
category_label: Met

molecule: N#Cc1c(C2CCNCC2)cc(-c2c(O)cccc2OCC2CC2)nc1N
category_label: Met

molecule: CC1=C(CO)C(=O)O[C@@H]([C@@H](C)[C@H]2CC[C@H]3[C@@H]4C[C@H]5O[C@]56[C@@H](O)C=CC(=O)[C@]6(C)C4CC[C@]23C)C1 (some centres undefined)
category_label: Met

molecule: Cc1cc(NC(=O)c2cccc(NC(=O)/C=C/CN(C)C)c2)ccc1Nc1nccc(-c2cccnc2)n1
category_label: Not met

molecule: Cc1ccc(Sc2cnc(Nc3cccc(Br)n3)s2)cc1C(=O)N1CCN(C(=O)CN)CC1
category_label: Not met

----------
Biological target: UniProt Q9H2X6
Sequence (Q9H2X6 whole entry, looked up): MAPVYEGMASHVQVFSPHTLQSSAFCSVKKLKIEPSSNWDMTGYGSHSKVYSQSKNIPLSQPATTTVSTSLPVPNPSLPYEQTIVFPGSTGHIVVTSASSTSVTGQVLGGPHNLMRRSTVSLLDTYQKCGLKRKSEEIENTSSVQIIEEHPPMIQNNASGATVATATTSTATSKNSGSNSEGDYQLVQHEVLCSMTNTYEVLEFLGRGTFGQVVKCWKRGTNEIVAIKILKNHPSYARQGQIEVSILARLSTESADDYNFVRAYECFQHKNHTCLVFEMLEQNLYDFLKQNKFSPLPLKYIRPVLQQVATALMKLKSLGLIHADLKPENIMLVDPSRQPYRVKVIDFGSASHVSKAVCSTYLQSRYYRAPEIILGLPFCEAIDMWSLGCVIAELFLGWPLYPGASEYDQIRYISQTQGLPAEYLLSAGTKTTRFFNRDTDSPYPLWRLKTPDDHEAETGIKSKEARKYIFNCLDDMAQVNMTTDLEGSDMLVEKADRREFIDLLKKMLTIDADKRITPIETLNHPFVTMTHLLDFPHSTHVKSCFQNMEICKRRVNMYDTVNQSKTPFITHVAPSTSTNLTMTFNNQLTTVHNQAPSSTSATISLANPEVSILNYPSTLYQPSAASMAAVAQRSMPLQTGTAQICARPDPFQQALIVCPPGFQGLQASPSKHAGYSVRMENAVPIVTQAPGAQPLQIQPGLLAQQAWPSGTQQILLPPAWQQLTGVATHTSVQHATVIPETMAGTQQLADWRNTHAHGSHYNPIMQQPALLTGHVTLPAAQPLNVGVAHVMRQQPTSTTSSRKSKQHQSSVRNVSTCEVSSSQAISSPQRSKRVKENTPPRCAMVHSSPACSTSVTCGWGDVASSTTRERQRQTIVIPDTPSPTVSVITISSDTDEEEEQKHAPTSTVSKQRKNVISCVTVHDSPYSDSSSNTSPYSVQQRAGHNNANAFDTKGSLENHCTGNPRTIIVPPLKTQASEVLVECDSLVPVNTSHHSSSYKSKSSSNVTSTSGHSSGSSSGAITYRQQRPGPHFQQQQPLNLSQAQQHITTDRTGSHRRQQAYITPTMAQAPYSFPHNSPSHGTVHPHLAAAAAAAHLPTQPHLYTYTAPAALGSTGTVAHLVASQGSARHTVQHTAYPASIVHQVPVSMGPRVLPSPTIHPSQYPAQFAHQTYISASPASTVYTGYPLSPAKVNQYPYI
Assay: radiometric filter-binding kinase assay
Conditions: compound 1.0 µM
Below: a set of entries, each annotated with reported residual activity.

compound: Cc1ccc(Sc2cnc(Nc3cccc(Br)n3)s2)cc1C(=O)N1CCN(C(=O)CN)CC1
assay_system: UniProt Q9H2X6
residual activity / %: 13
//
compound: O=C(NOC[C@H](O)CO)c1ccc(F)c(F)c1Nc1ccc(I)cc1Cl
assay_system: UniProt Q9H2X6
residual activity / %: 93
//
compound: O=C(O)c1ccc(-c2c[nH]c3ncc(-c4ccccc4)cc23)cc1C1CCCC1
assay_system: UniProt Q9H2X6
residual activity / %: 58
//
compound: O=C(Nc1ccccc1-c1cn2c(CN3CCNCC3)csc2n1)c1cnc2ccccc2n1
assay_system: UniProt Q9H2X6
residual activity / %: 86
//
compound: Cc1cccc(-c2nn(C(=S)Nc3ccccc3)cc2-c2ccnc3ccccc23)n1
assay_system: UniProt Q9H2X6
residual activity / %: 95
//
compound: COc1cc(O)c2c(c1)[C@H]1OC1C[C@H](O)[C@H](O)C(=O)/C=C\C[C@H](C)OC2=O (stereo partly specified)
assay_system: UniProt Q9H2X6
residual activity / %: 72

----------
Molecular target: MAPK12 (human)
Assay: radiometric filter-binding kinase assay
Conditions: compound 0.01 µM

molecule: C/C(=C1/C(=O)Nc2ccc(NC(N)=O)cc21)c1ccc[nH]1
residual activity: 87%

molecule: CNC(=O)C1[C@H]2O[C@@](C)([C@@H]1N)n1c3ccccc3c3c4c(c5c6ccccc6n2c5c31)C(=O)NC4 (stereo partly specified)
residual activity: 76%

molecule: CNc1nc(-c2ccc3c(N)n[nH]c3c2)cc(N2C[C@@H](C(=O)NC3CCCCC3)CC[C@H]2C)n1
residual activity: 109%

molecule: COc1cc(O)c2c(c1)[C@H]1OC1C[C@H](O)[C@H](O)C(=O)/C=C\C[C@H](C)OC2=O (stereo partly specified)
residual activity: 100%

molecule: COc1ccc(N(C(=O)Nc2c(C)cccc2C)c2cc(Nc3ccc(N4CCN(C)CC4)cc3)ncn2)c(OC)c1
residual activity: 110%

molecule: O=C(Nc1nc2cc(C(F)(F)F)cc(NC3CC3)n2n1)c1cccnc1
residual activity: 71%

----------
Below: a set of entries, each annotated with reported residual activity.
Target: PIM1 (human) (UniProt P11309)
Sequence (P11309 whole entry, looked up): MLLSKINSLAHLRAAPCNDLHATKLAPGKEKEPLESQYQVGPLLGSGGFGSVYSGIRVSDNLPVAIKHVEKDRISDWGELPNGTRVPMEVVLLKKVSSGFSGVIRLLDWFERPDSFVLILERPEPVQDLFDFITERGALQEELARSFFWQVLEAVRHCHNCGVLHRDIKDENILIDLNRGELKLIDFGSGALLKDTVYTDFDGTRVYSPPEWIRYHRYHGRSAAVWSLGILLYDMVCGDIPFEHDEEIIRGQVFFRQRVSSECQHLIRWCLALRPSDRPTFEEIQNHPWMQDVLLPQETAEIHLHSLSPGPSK
Experiment: radiometric filter-binding kinase assay
Settings: compound 10.0 µM

molecule: NS(=O)(=O)OC[C@@H]1C[C@@H](n2ccc3c(N[C@H]4CCc5ccccc54)ncnc32)C[C@@H]1O
assay_system: PIM1 (human) (UniProt P11309)
result_units: %
residual activity: 103
//
molecule: c1ccc2c(-c3cnn4cc(-c5ccc(N6CCNCC6)cc5)cnc34)ccnc2c1
assay_system: PIM1 (human) (UniProt P11309)
result_units: %
residual activity: 82
//
molecule: NC(=O)c1cc2c(-c3cccc(-c4ccccc4)c3)cnc(N)c2s1
assay_system: PIM1 (human) (UniProt P11309)
result_units: %
residual activity: 41
//
molecule: Cc1ccc(Sc2cnc(Nc3cccc(Br)n3)s2)cc1C(=O)N1CCN(C(=O)CN)CC1
assay_system: PIM1 (human) (UniProt P11309)
result_units: %
residual activity: 11
//
molecule: O=C1Nc2nc(-c3c(O)cccc3OCC3CC3)cc(C3CCCNC3)c2CO1 (stereo not given)
assay_system: PIM1 (human) (UniProt P11309)
result_units: %
residual activity: 15
//
molecule: COC(=O)/C=C/C(=O)OC
assay_system: PIM1 (human) (UniProt P11309)
result_units: %
residual activity: 99
//
molecule: Cc1ccc2c(c1)C(=O)[C@@]1(O)CCN(c3ccccc3)C1=N2
assay_system: PIM1 (human) (UniProt P11309)
result_units: %
residual activity: 87
//
molecule: O=c1c(O)c(-c2ccc(O)c(O)c2)oc2cc(O)c(O)c(O)c12
assay_system: PIM1 (human) (UniProt P11309)
result_units: %
residual activity: 7
//
molecule: O=C(NOC[C@H](O)CO)c1ccc(F)c(F)c1Nc1ccc(I)cc1Cl
assay_system: PIM1 (human) (UniProt P11309)
result_units: %
residual activity: 73
//
molecule: CN1C(=O)[C@@H](Cc2c[nH]c3ccccc23)NC1=S
assay_system: PIM1 (human) (UniProt P11309)
result_units: %
residual activity: 94

----------
Target: UniProt P68400
Sequence (P68400 whole entry, looked up): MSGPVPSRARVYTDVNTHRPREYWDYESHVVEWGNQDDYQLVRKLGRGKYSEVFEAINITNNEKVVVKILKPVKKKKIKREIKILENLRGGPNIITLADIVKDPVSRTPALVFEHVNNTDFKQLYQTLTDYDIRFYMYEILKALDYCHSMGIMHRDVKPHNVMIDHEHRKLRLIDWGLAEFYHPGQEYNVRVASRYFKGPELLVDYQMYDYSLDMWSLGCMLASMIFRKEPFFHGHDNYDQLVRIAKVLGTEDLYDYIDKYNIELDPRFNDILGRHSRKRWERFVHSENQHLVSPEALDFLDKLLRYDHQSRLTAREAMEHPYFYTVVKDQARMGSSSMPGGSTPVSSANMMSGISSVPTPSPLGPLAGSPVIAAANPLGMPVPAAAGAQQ
Test: radiometric filter-binding kinase assay
Conditions: compound 10.0 µM
Below: a set of entries, each annotated with reported residual activity.

molecule: Cc1ccc(-c2ccc3c(ccc4sc5c(c43)NC[C@@H](C)NC5=O)n2)cn1
assay_system: UniProt P68400
residual activity: 93%
//
molecule: CN1C(=O)[C@@H](Cc2c[nH]c3ccccc23)NC1=S
assay_system: UniProt P68400
residual activity: 87%
//
molecule: c1ccc2c(-c3cnn4cc(-c5ccc(N6CCNCC6)cc5)cnc34)ccnc2c1
assay_system: UniProt P68400
residual activity: 81%
//
molecule: COc1ccc2c(c1)c1c3c(c4c5ccccc5n(C)c4c1n2CC(O)CN(C)C)C(=O)NC3=O (stereo not given)
assay_system: UniProt P68400
residual activity: 71%
//
molecule: O=C(Nc1ccccc1-c1cn2c(CN3CCNCC3)csc2n1)c1cnc2ccccc2n1
assay_system: UniProt P68400
residual activity: 77%

----------
Target: SRC (human)
Test: radiometric filter-binding kinase assay
Details: compound 1.0 µM
Below: a set of entries, each annotated with reported residual activity.
metric: residual activity (%)

compound_string: O=C(Nc1ccccc1-c1cn2c(CN3CCNCC3)csc2n1)c1cnc2ccccc2n1
metric: residual activity
obs_value: 93
//
compound_string: CCCC(CCC)C(=O)O
metric: residual activity
obs_value: 100
//
compound_string: NC(=O)c1cc(-c2ccnc(NC3CCCCC3)c2)nc(N2CCNCC2)c1
metric: residual activity
obs_value: 90
//
compound_string: CCCCCc1ccc(/C=C/[C@H](O)[C@@H](CO)NC)cc1
metric: residual activity
obs_value: 100
//
compound_string: N#Cc1c(C2CCNCC2)cc(-c2c(O)cccc2OCC2CC2)nc1N
metric: residual activity
obs_value: 89
//
compound_string: CCn1c(-c2nonc2N)nc2cncc(CNC3CCNCC3)c21
metric: residual activity
obs_value: 120
//
compound_string: Oc1ccc2ccccc2c1SSc1c(O)ccc2ccccc12
metric: residual activity
obs_value: 42
//
compound_string: NC(=O)c1cc2c(-c3cccc(-c4ccccc4)c3)cnc(N)c2s1
metric: residual activity
obs_value: 89
//
compound_string: Cn1nc(Nc2ccc(F)cc2)c2c(N)ncnc21
metric: residual activity
obs_value: 96
//
compound_string: O=C(O)c1ccc(-c2c[nH]c3ncc(-c4ccccc4)cc23)cc1C1CCCC1
metric: residual activity
obs_value: 102
//
compound_string: Cc1cc(SCc2sc(-c3ccc(C(F)(F)F)cc3)nc2C)ccc1OCC(=O)O
metric: residual activity
obs_value: 87

----------
Molecular target: UniProtKB Q9NQU5
Sequence (Q9NQU5 whole entry, looked up): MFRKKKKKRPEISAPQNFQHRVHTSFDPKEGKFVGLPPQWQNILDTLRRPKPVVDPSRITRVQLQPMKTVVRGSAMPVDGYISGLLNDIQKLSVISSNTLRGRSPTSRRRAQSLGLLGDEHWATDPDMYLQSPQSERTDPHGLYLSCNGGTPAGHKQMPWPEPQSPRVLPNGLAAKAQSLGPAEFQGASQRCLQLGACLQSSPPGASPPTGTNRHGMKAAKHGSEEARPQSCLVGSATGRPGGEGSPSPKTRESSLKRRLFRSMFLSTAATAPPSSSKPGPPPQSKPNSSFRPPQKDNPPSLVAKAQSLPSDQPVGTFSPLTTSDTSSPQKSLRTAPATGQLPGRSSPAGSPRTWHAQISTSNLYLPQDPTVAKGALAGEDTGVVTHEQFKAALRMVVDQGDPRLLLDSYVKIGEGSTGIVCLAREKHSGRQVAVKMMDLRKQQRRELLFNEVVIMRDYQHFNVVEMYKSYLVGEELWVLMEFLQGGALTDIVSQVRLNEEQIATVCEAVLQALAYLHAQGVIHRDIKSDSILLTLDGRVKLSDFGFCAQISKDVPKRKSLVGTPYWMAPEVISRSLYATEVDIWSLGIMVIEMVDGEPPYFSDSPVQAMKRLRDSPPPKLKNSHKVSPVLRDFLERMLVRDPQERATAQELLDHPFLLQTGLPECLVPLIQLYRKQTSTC
Experiment: radiometric filter-binding kinase assay
Settings: compound 0.1 µM
Below: a set of entries, each annotated with reported residual activity.
metric: residual activity (%)

compound: CC1=C(CO)C(=O)O[C@@H]([C@@H](C)[C@H]2CC[C@H]3[C@@H]4C[C@H]5O[C@]56[C@@H](O)C=CC(=O)[C@]6(C)C4CC[C@]23C)C1 (stereo partly specified)
metric: residual activity
result_units: %
obs_value: 125
//
compound: O=C(O)c1ccc(-c2c[nH]c3ncc(-c4ccccc4)cc23)cc1C1CCCC1
metric: residual activity
result_units: %
obs_value: 102
//
compound: COc1cc(O)c2c(c1)/C=C/C[C@H](O)[C@H](O)C(=O)/C=C\C[C@H](C)OC2=O
metric: residual activity
result_units: %
obs_value: 100
//
compound: O=C(N[C@@H](COc1ccc2[nH]c(=O)[nH]c2c1)c1ccccc1)c1cccn(Cc2ccc(F)c(F)c2)c1=O
metric: residual activity
result_units: %
obs_value: 102
//
compound: NC(=O)c1cc(-c2ccnc(NC3CCCCC3)c2)nc(N2CCNCC2)c1
metric: residual activity
result_units: %
obs_value: 99
//
compound: O=C(Nc1ccccc1-c1cn2c(CN3CCNCC3)csc2n1)c1cnc2ccccc2n1
metric: residual activity
result_units: %
obs_value: 101
